Tested on: NCI-H460 lung
test_method_notes: NCI-60 one-dose screen, 48 h
reported_conditions: 10 µM unless noted
Compounds without any hit were thinned out: in the full panel of roughly 83,000, 20% have a hit. Active and inactive are the calls of the source. The calls were made as follows: active = growth percent below 10; inactive = the rest.
Labels: active, inactive

>  <structure_smiles>
CCSc1oc(-c2ccccc2)nc1[P+](c1ccccc1)(c1ccccc1)c1ccccc1

>  <measured_on>
NCI-H460 lung

>  <assigned_category>
active

$$$$
>  <structure_smiles>
CC1(C)COB(OCC(C)(C)COB2OCC(C)(C)CO2)OC1

>  <measured_on>
NCI-H460 lung

>  <assigned_category>
inactive

$$$$
>  <structure_smiles>
O=C1/C(=C/c2ccccc2Br)COc2ccc(O)cc21

>  <measured_on>
NCI-H460 lung

>  <assigned_category>
inactive

$$$$
>  <structure_smiles>
COc1cc2c(cc1OCCCN1CCN(CCCOc3cc4c(cc3OC)C(=O)N3CC(F)(F)C[C@H]3C=N4)CC1)N=C[C@@H]1CC(F)(F)CN1C2=O

>  <measured_on>
NCI-H460 lung

>  <assigned_category>
inactive

$$$$
>  <structure_smiles>
C#Cc1c2c(c(OC)c3c1OCO3)[C@H]([C@H]1OC(=O)c3c1ccc(OC)c3OC)N(C)CC2

>  <measured_on>
NCI-H460 lung

>  <assigned_category>
inactive

$$$$
>  <structure_smiles>
Fc1cccc(Oc2ccc(Nc3ncnc4ccc(OCCCN5CCOCC5)cc34)cc2Cl)c1

>  <measured_on>
NCI-H460 lung

>  <assigned_category>
inactive

$$$$
>  <structure_smiles>
CCC(=C(c1ccc(OCCN2CCCCC2)cc1)c1ccc(OCCN2CCCCC2)cc1)c1ccc(Cl)cc1

>  <measured_on>
NCI-H460 lung

>  <assigned_category>
active

$$$$
>  <structure_smiles>
O=S(=O)(NCCCNc1nccc(-c2c(-c3ccc(F)c(O)c3)nc3occn23)n1)c1ccc(Cl)cc1

>  <measured_on>
NCI-H460 lung

>  <assigned_category>
inactive

$$$$
>  <structure_smiles>
C=CCSc1nnc(NC(=O)CCl)s1

>  <measured_on>
NCI-H460 lung

>  <assigned_category>
inactive

$$$$

----------
Reported growth values are given for each entry in this list.
Tested on: MOLT-4 leukemia
test_method_notes: NCI-60 one-dose screen, 48 h (100 = growth as untreated, 0 = no growth, -100 = all killed)
reported_conditions: 10 µM unless noted
This is part of a sample that, as a whole, favours compounds with a hit. Of some 83,000 tested, about 20% had one in any assay.

>  <compound>
COc1cc(/C=C/C(=O)c2ccc(F)cc2)ccc1OCCCCOc1ccc(/C=C/C(=O)c2c(C)nc3ccccc3c2C)cc1OC

>  <measure_unit>
%

>  <growth>
67

$$$$
>  <compound>
O=S(=O)(NCCNc1nccc(-c2c(-c3ccc(F)c(O)c3)nc3sccn23)n1)c1ccc(O)cc1

>  <measure_unit>
%

>  <growth>
19.3

$$$$
>  <compound>
CCCCNC(=O)CC1=C(C)/C(=C/c2[nH]c(-c3ccc[nH]3)cc2OC)N=C1C

>  <measure_unit>
%

>  <growth>
7.6

$$$$
>  <compound>
CN(C)CC1CCC(CN(C)C)C1=O (stereo not given)

>  <measure_unit>
%

>  <growth>
64.4

$$$$
>  <compound>
CNC(=O)c1[nH]cc(-c2ccc(OC)cc2)c1-c1cc(OC)c2c(c1OC)OCO2

>  <measure_unit>
%

>  <growth>
109

$$$$
>  <compound>
O=C(CSC(=S)n1cnnc1)NC(=O)c1ccccc1

>  <measure_unit>
%

>  <growth>
102

$$$$
>  <compound>
C#CCOC(=O)/C=C/c1cn(-c2ccccc2)nc1-c1ccc(OC)cc1

>  <measure_unit>
%

>  <growth>
75.8

$$$$
>  <compound>
COc1cc2c(c(OC)c1OC)CCC(c1cccc(C(=O)Nc3ccc(C#N)cc3)c1)O2 (stereo not given)

>  <measure_unit>
%

>  <growth>
-14.4

$$$$
>  <compound>
O=C(Cn1cc(CSc2nc3ccccc3o2)nn1)Nc1ccc(F)cc1F

>  <measure_unit>
%

>  <growth>
120

$$$$
>  <compound>
COC(=O)c1nc(-c2ccc(C)cc2)oc1S(=O)(=O)c1cccc(OC)c1

>  <measure_unit>
%

>  <growth>
-7.44

$$$$
